- Subject Of Test: T1, His-tagged P3028 (human, also: His-tag, terminus and sequence not given here)
- T1 construct: in solution at 0.5 ug/mL over the peptide cards; found with anti-His-tag antibody and rabbit anti-mouse peroxidase (rampo); also called PGE73; not shown: His-tag
- T1 peptide: VFDEFKPLVEEPQNLIK
- Measurement Protocol: PEPSCAN chip ELISA, His-P3028 in solution;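 note: score is the raw OD at 405 nm from peroxidase colour with ABTS, imaged by CCD camera before and after staining, with wells showing air bubbles set to zero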
No end group written: not given here.
Field: RAMPO Score. Provide a value for each of the binders that follow.

Recorded RAMPO Score (binder KKLDTFFVKLTLFTER [SEQ ID NO 349] ): 520 rampo score

Recorded RAMPO Score (binder KKLDTFFVKLSLFTEN [SEQ ID NO 390] ): 311 rampo score

Recorded RAMPO Score (binder KKLGTFFVKLSLFTER [SEQ ID NO 515] ): 264 rampo score

Recorded RAMPO Score (binder KKLDQFFVKLSLFTER [SEQ ID NO 308] ): 535 rampo score

Recorded RAMPO Score (binder KKDDTFFVKLSLFTER [SEQ ID NO 284] ): 492 rampo score

Recorded RAMPO Score (binder KKMDTFFVKLSLFTER [SEQ ID NO 291] ): 460 rampo score

Recorded RAMPO Score (binder KKLDTFFVKVSLFTER [SEQ ID NO 14] ): 658 rampo score
